Reported DC50 is given for each of the following compounds.
# system-name: GSPT1 (Homo sapiens, UniProt P15170+Q96SW2)
# Construct: host or cells: HEK293 LgBiT cell line
# Sequence (P15170 whole entry): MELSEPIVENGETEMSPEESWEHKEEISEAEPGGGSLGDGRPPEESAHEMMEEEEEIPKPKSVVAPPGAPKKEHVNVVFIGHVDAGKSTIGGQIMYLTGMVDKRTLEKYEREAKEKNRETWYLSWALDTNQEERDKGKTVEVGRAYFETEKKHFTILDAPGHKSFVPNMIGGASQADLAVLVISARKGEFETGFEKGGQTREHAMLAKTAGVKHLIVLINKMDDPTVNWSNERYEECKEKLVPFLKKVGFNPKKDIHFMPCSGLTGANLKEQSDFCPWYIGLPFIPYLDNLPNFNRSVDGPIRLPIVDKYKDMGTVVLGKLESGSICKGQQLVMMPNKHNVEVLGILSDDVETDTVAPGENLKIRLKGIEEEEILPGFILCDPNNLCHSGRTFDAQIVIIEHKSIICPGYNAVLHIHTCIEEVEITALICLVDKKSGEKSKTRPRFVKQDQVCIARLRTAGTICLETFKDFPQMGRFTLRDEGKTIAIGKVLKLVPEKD
# Sequence (Q96SW2 whole entry): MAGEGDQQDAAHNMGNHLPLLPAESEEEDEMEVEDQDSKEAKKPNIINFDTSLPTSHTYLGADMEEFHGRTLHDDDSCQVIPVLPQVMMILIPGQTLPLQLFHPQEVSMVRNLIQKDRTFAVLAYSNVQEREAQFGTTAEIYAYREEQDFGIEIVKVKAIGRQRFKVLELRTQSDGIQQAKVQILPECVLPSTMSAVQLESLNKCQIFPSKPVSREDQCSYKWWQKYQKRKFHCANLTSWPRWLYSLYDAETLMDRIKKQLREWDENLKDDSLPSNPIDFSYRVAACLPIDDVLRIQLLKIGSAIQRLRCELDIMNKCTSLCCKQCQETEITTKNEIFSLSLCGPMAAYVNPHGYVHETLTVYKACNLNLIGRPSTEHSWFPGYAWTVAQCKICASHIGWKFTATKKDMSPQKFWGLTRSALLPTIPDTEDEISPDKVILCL
# Sequence (Q16531 whole entry partner): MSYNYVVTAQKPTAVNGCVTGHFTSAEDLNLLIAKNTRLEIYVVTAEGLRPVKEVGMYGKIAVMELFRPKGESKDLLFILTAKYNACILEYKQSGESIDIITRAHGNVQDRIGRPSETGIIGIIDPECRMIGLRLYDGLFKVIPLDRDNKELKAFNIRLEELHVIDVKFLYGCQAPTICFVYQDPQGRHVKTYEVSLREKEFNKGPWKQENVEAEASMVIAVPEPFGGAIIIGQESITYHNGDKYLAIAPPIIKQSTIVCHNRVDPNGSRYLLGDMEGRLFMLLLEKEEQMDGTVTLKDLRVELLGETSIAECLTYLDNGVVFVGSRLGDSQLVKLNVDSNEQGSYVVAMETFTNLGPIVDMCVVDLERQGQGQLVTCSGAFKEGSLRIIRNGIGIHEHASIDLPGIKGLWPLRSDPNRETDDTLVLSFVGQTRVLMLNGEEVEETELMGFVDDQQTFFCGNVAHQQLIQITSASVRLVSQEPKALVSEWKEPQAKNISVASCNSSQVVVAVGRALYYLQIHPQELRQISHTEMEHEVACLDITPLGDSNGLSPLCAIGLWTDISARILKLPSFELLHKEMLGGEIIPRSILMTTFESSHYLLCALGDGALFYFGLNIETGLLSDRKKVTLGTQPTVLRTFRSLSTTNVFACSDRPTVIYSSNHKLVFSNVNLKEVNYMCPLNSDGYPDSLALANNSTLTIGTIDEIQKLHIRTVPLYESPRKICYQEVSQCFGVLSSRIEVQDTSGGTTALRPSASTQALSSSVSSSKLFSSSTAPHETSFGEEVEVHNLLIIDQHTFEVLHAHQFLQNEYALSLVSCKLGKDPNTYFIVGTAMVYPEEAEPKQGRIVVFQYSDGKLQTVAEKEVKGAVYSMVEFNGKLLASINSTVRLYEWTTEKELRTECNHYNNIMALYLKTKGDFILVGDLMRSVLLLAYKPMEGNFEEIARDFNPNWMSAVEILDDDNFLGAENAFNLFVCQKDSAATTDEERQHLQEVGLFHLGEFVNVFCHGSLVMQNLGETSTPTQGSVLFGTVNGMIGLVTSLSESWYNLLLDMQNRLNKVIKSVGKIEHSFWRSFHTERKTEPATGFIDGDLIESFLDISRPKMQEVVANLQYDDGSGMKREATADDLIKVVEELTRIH
# assay-notes: GSPT1 HiBit degradation assay
# Assay type: cell-based
# condition-label: Table 3A; HEK293 LgBiT cells expressing GSPT1_HiBiT, luminescence after 6 hours

Exercise: Any idea what its DC50 is? The compound is COc1cc(N(C)CCN(C)C)c(NC(=O)/C=C/CN(C)CCOCCOCCOCCOCCOCCCCCc2cc(Cl)cc(NC(=O)NCc3ccc4c(c3)CN(C3CCC(=O)NC3=O)C4=O)c2)cc1Nc1nccc(-c2cn(C)c3ccccc23)n1 (centres unmarked)
Solution: 250 to 5000 nM

Exercise: // same read-out, input: C=CC(=O)N[C@@H]1CN(c2nc(Nc3cn(CCOCCOCCOCCCCCc4cc(Cl)cc(NC(=O)NCc5ccc6c(c5)CN(C5CCC(=O)NC5=O)C6=O)c4)nc3OC)c3ncn(C)c3n2)C[C@H]1F (some centres unmarked)
Solution: < 250 nM

====

# system-name: GSPT1 (Homo sapiens, UniProt P15170+Q96SW2)
# Construct: host or cells: HEK293 LgBiT cell line
# assay-notes: GSPT1 HiBit degradation assay
# Assay type: cell-based
# condition-label: Table 3; HEK293 LgBiT cells expressing GSPT1_HiBiT, luminescence after 6 hours
value-type: DC50

Illustrative cases are given below, each with its answer.
compound	DC50
C=C(F)C(=O)N1CCN(c2nc(OC[C@@H]3CCCN3CCOCCOCCCCCCCCCCCCCCc3cc(Cl)cc(NC(=O)NCc4ccc5c(c4)CN(C4CCC(=O)NC4=O)C5=O)c3)nc3c2CCN(c2cccc4cccc(Cl)c24)C3)C[C@@H]1CC#N (stereo partly shown)	0.25 to 5 µM
C=C(F)C(=O)N1CCN(c2nc(OC[C@@H]3CCCN3CCOCCOCCOCCOCCOCCOCCCCCCCCCCCCCCc3cc(Cl)cc(NC(=O)NCc4ccc5c(c4)CN(C4CCC(=O)NC4=O)C5=O)c3)nc3c2CCN(c2cccc4cccc(Cl)c24)C3)C[C@@H]1CC#N (stereo partly shown)	0.25 to 5 µM

Exercise: Any idea what its DC50 is? The compound is CN(C/C=C/C(=O)N1CCC([C@@H]2CCNc3c(C(N)=O)c(-c4ccc(Oc5ccccc5)cc4)nn32)CC1)CCOCCOCCOCCOCCOCCOCCCCCCCCc1cc(Cl)cc(NC(=O)NCc2ccc3c(c2)CN(C2CCC(=O)NC2=O)C3=O)c1 (stereo partly shown)
Solution: < 0.25 µM

Exercise: // same read-out, input: C=C(F)C(=O)N1CCN(c2nc(OC[C@@H]3CCCN3CCOCCOCCOCCOCCOCCOCCOCCOCCCCCCCCc3cc(Cl)cc(NC(=O)NCc4ccc5c(c4)CN(C4CCC(=O)NC4=O)C5=O)c3)nc3c2CCN(c2cccc4cccc(Cl)c24)C3)C[C@@H]1CC#N (stereo partly shown)
Solution: < 0.25 µM

Exercise: // same read-out, input: C=CC(=O)Nc1cc(Nc2nccc(-c3cn(C)c4ccccc34)n2)c(OC)cc1N(C)CCN(C)CCOCCOCCOCCOCCOCCOCCOCCOCCOc1cc(Cl)cc(NC(=O)NCc2ccc3c(c2)CN(C2CCC(=O)NC2=O)C3=O)c1 (stereo not shown)
Solution: > 10 µM

Exercise: // same read-out, input: C=CC(=O)Nc1cc(Nc2nccc(-c3cn(C)c4ccccc34)n2)c(OC)cc1N(C)CCN(C)CCOCCOCCOCCOCCOCCOCCc1cc(Cl)cc(NC(=O)NCc2ccc3c(c2)CN(C2CCC(=O)NC2=O)C3=O)c1 (stereo not shown)
Solution: 5 to 10 µM

Exercise: // same read-out, input: C=C(F)C(=O)N1CCN(c2nc(OC[C@H]3CCCN3CCOCCOCCOCCOCCOCCOCCOCCOCCOCCOCCCCCCCCc3cc(Cl)cc(NC(=O)NCc4ccc5c(c4)CN(C4CCC(=O)NC4=O)C5=O)c3)nc3c2CCN(c2cccc4cccc(Cl)c24)C3)C[C@H]1CC#N (stereo partly shown)
Solution: < 0.25 µM

Exercise: // same read-out, input: COc1cc(N2CCN(C(=O)COCCOCCOCCOCCOCCOCCOCCOCCOCCOCCc3cc(Cl)cc(NC(=O)NCc4ccc5c(c4)CN(C4CCC(=O)NC4=O)C5=O)c3)CC2)ccc1Nc1ncc(Cl)c(Nc2ccccc2P(C)(C)=O)n1 (stereo not shown)
Solution: 5 to 10 µM

Exercise: // same read-out, input: C=C(F)C(=O)N1CCN(c2nc(OC[C@@H]3CCCN3CCOCCOCCOCCOCCCCCCCCCCCCCCc3cc(Cl)cc(NC(=O)NCc4ccc5c(c4)CN(C4CCC(=O)NC4=O)C5=O)c3)nc3c2CCN(c2cccc4cccc(Cl)c24)C3)C[C@@H]1CC#N (stereo partly shown)
Solution: 0.25 to 5 µM
